Provenance of the data: ChEMBL document CHEMBL1127424

Tested on: Staphylococcus aureus
Assay: In vitro minimum inhibitory concentration for Staphylococcus aureus ATCC 25178
Format: functional
recorded_endpoint: MIC (µg/mL)
The answer is to be given in µg/mL; state only the numeric part.

# example entries with known answers
C[C@H]1N(c2c(F)cc3c(=O)c(C(=O)O)cn(C4CC4)c3c2F)C[C@]1(C)N = 0.25
C[C@H]1[C@H](N)CN1c1c(F)c(N)c2c(=O)c(C(=O)O)cn(C3CC3)c2c1F = 0.015
C[C@H]1[C@H](N)CN1c1cc2c(cc1F)c(=O)c1c(=O)[nH]sc1n2C1CC1 = 0.06
C[C@@H]1[C@@H](O)CN1c1c(F)cc2c(=O)c(C(=O)O)cn(C3CC3)c2c1F = 0.12
C[C@H]1N(c2cc3c(cc2F)c(=O)c(C(=O)O)cn3C2CC2)C[C@]1(C)N = 0.25

Request: Can you look up MIC on Staphylococcus aureus for C[C@@H]1[C@@H](N(C)C)CN1c1c(F)cc2c(=O)c(C(=O)O)cn(C3CC3)c2c1F ?
Response: 0.12
